Sourced from patent US20170369523A1

Target: T1, NCoA-1 (UniProt Q15788 257-385, limits assumed)
T1 construct: also called SRC-1
T1 sequence (looked up): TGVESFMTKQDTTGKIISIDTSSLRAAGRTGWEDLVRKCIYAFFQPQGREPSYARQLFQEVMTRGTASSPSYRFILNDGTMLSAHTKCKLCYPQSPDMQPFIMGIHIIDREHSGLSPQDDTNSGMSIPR
Assay: competition fluorescence polarization; displacement of FluoSTAT6 from NCoA-1
pKi: −log10 of the molar value. Square brackets hold non-standard residues; d marks the D form. Trp(6-Cl) = N[C@@H](Cc1c[nH]c2cc(Cl)ccc12)C(=O)O; Cha = N[C@@H](CC1CCCCC1)C(=O)O

binder: cyclo(FE[Trp(6-Cl)]LAWEF[dP]P) (SMILES CC(C)C[C@@H]1NC(=O)[C@H](Cc2c[nH]c3cc(Cl)ccc23)NC(=O)[C@H](CCC(=O)O)NC(=O)[C@H](Cc2ccccc2)NC(=O)[C@@H]2CCCN2C(=O)[C@H]2CCCN2C(=O)[C@H](Cc2ccccc2)NC(=O)[C@H](CCC(=O)O)NC(=O)[C@H](Cc2c[nH]c3ccccc23)NC(=O)[C@H](C)NC1=O, cyclo(-P1..P8-template-)) [Ex. 1]
pKi: 6.15
--
binder: cyclo([Cha]EWLAWEF[dP]P) (SMILES CC(C)C[C@@H]1NC(=O)[C@H](Cc2c[nH]c3ccccc23)NC(=O)[C@H](CCC(=O)O)NC(=O)[C@H](CC2CCCCC2)NC(=O)[C@@H]2CCCN2C(=O)[C@H]2CCCN2C(=O)[C@H](Cc2ccccc2)NC(=O)[C@H](CCC(=O)O)NC(=O)[C@H](Cc2c[nH]c3ccccc23)NC(=O)[C@H](C)NC1=O, cyclo(-P1..P8-template-)) [Ex. 25]
pKi: 5.22
